- MEASUREMENT_TARGET: MsVps4ΔMIT (Metallosphaera sedula)
- Construct: gene Msed_1672
- Sequence (A4YHC5 entry or part of it, stated change not applied): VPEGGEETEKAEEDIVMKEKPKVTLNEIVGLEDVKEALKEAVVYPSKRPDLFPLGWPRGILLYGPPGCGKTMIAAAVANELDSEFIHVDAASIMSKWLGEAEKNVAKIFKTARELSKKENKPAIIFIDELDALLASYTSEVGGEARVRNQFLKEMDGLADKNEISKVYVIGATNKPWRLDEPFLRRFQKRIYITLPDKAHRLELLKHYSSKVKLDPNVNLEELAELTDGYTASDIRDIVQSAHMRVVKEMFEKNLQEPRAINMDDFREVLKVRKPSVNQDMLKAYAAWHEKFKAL
- PROTOCOL: ITC
- Format: binding
VALUE_TYPE: pKd
Please report pKd as the negative decimal logarithm of the molar concentration, giving only the number.

**Query** Consider the molecule Nc1ncnc2c1ncn2[C@@H]1O[C@H](COP(=O)(O)OP(=O)(O)OP(=O)(O)O)[C@@H](O)[C@H]1O [ATP] and give its recorded pKd.
**Result** 5.48

// provenance: paper PMC4686814
